Sourced from the supplement of paper PMC11732987

Biological target: USP7 (UniProt Q93009)
Sequence (Q93009 whole entry, looked up, the tested form may be a part): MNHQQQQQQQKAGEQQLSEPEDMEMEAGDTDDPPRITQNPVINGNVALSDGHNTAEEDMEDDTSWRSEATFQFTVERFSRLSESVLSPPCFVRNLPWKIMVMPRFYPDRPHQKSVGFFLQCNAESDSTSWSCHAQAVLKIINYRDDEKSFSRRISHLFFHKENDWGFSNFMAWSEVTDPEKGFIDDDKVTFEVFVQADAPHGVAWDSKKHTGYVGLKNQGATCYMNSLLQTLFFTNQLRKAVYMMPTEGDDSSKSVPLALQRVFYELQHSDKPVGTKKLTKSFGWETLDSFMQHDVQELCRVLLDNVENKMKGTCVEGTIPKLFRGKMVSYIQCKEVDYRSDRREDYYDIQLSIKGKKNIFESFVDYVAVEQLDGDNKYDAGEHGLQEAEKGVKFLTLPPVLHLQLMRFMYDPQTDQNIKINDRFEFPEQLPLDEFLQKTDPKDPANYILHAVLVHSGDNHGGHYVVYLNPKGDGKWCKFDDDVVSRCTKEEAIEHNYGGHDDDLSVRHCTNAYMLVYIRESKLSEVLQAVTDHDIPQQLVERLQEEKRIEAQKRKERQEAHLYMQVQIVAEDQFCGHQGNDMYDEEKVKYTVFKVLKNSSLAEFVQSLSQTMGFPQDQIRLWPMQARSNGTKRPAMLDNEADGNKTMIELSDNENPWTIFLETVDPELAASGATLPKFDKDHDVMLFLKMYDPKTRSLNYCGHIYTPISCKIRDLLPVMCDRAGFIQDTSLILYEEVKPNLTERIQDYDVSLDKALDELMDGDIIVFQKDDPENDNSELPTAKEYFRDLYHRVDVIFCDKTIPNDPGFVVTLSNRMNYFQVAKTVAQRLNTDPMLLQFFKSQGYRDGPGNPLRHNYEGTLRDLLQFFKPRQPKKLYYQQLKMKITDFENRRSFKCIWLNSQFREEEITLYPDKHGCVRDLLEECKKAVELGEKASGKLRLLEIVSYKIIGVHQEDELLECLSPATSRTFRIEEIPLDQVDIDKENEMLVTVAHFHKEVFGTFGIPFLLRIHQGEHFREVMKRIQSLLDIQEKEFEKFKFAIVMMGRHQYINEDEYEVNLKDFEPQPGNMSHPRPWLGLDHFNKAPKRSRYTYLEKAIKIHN
Assay: log2 ratio of Biotin-Ahx-Ub-VS probe labelling (fragment/DMSO); higher = less target engagement (more negative = stronger competition), active = hit call of the paper (q ≤ 0.05, log2 ratio ≤ -1)
Conditions: compound concentration: 200 uM; treatment time: 3 h
measurement-type: log2 ratio of Biotin-Ahx-Ub-VS probe labelling

>  <compound>
Cc1cc(CC(C)NC(=O)CCl)n[nH]1 (centres undefined)

>  <reported-value>
-0.0248

$$$$
>  <compound>
O=C(CCl)NC1CCC2(CC1)OCCO2

>  <reported-value>
-0.157

$$$$
>  <compound>
Cl.O=C(CCl)NCc1cc2c(nc1O)CCCC2

>  <reported-value>
-0.155

$$$$
>  <compound>
CC(NC(=O)CCl)c1cccc(Cl)c1 (centres undefined)

>  <reported-value>
-0.385

$$$$
>  <compound>
CC1CN(c2ccc(NC(=O)CCl)cc2)CC(C)O1 (centres undefined)

>  <reported-value>
-0.186

$$$$
>  <compound>
Cc1cc(Cl)ccc1NC(=O)CCl

>  <reported-value>
-0.304

$$$$
>  <compound>
CNC(=O)Cn1cc(NC(=O)CCl)cn1

>  <reported-value>
-0.438

$$$$
>  <compound>
Cc1noc(N2CCN(C(=O)CCl)CC2)n1.Cl

>  <reported-value>
-0.27

$$$$
>  <compound>
C#Cc1cccc(NC(=O)CCl)c1

>  <reported-value>
-0.56

$$$$
>  <compound>
Cc1ncsc1CCNC(=O)CCl

>  <reported-value>
0.0797

$$$$
>  <compound>
CC(C)n1nccc1NC(=O)CCl

>  <reported-value>
-0.278

$$$$
>  <compound>
O=C(CCl)Nc1cc2c(cc1Cl)OCCO2

>  <reported-value>
-0.216

$$$$
>  <compound>
Cc1nc(CNC(=O)CCl)c2ccccn12.Cl

>  <reported-value>
-0.157

$$$$
>  <compound>
COc1ccccc1C(C)NC(=O)CCl (centres undefined)

>  <reported-value>
-0.235

$$$$

----------
Target: OTUD7B (UniProt Q6GQQ9)
Sequence (Q6GQQ9 whole entry, the tested form may be a part): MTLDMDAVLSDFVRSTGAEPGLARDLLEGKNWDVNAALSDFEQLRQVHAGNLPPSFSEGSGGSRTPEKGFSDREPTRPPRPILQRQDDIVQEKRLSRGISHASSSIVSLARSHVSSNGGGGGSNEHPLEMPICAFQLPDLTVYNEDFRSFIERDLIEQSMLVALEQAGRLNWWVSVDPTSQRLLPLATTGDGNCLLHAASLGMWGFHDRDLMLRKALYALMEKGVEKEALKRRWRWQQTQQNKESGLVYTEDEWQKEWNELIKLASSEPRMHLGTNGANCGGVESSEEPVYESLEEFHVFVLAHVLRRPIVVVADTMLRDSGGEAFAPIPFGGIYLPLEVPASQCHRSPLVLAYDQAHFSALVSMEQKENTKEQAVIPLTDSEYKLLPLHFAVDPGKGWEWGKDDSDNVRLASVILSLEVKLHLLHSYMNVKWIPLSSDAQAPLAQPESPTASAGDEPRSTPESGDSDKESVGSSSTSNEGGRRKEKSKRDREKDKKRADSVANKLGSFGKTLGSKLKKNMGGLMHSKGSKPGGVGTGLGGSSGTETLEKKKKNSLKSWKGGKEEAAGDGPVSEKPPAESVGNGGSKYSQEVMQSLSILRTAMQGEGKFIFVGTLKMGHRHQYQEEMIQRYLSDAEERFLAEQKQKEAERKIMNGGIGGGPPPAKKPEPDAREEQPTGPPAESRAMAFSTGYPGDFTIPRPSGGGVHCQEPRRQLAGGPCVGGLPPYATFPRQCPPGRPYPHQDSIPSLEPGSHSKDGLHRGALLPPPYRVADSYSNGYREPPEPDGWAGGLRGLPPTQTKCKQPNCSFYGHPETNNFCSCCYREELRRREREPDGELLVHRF
Assay: log2 ratio of Biotin-Ahx-Ub-VS probe labelling (fragment/DMSO); higher = less target engagement (more negative = stronger competition), active = hit call of the paper (q ≤ 0.05, log2 ratio ≤ -1)
Conditions: compound concentration: 200 uM; treatment time: 3 h
Classes used: active, inactive

>  <molecule>
O=C(CCl)N1CCC(S(=O)(=O)c2ccc(F)cc2)CC1

>  <label-class>
inactive

$$$$
>  <molecule>
Cc1nc(CN2CCN(C(=O)CCl)CC2)cs1

>  <label-class>
inactive

$$$$
>  <molecule>
O=C(CCl)N1CCOC2(CCC2)CC1

>  <label-class>
inactive

$$$$
>  <molecule>
Cc1ccn2cc(CNC(=O)CCl)nc2c1.Cl

>  <label-class>
inactive

$$$$
>  <molecule>
O=C(CCl)N1CCCCC12CCOCC2

>  <label-class>
inactive

$$$$
>  <molecule>
CCN(Cc1ccc(C#N)cc1F)C(=O)CCl

>  <label-class>
inactive

$$$$
>  <molecule>
CCC(NC(=O)CCl)c1ccc(Cl)cc1 (centres undefined)

>  <label-class>
active

$$$$
>  <molecule>
O=C(CCl)NCc1ccc(N2CCOCC2)nc1

>  <label-class>
inactive

$$$$
>  <molecule>
Cc1c(NC(=O)CCl)c(=O)n(-c2ccccc2)n1C

>  <label-class>
inactive

$$$$
>  <molecule>
Cc1cc(NC(=O)CCl)n(-c2ccccc2)n1

>  <label-class>
inactive

$$$$
>  <molecule>
CCC1c2ccsc2CCN1C(=O)CCl (centres undefined)

>  <label-class>
inactive

$$$$
>  <molecule>
CNC(=O)C1CCN(C(=O)CCl)CC1

>  <label-class>
inactive

$$$$
>  <molecule>
COCC[C@@H](NC(=O)CCl)c1ccccc1

>  <label-class>
inactive

$$$$
>  <molecule>
O=C(CCl)N1CCC[C@@H]1c1ccon1

>  <label-class>
inactive

$$$$
